EXPERIMENTAL DETAILS: 14C assay: 14CO2 capture from [14C]-carboxyl-labeled dicamba with IPTG-induced recombinant E. coli cells
MEASUREMENT SETUP: IPTG-induced recombinant E. coli cells; 14CO2 from [14C]-carboxyl-labeled dicamba
MEASUREMENT KIND: Dicamba Decarboxylase Activity

1) 68 (protein, listed as Hoeflea phototrophica) MAIIDAHTHTLCPAVNEKVAGTIKPDSVPYQRDMSPESKEQDHTQFPELKIMFNQVERRLADMARMGIDRQVIAPAPGQQHYWAEPKLLAEISALQNDHVAELVARAPDRFAGIGTLPMTDPDAAVAEITRATRELGLRVFQIDSRVMERELSDASLDPIYAALEAAGAGLMIHPLGFSNGERLTPFFMVNSVAQPLEELLAFNHLVFGGVLDRFPKLKVYIAHGGGFAPFYIGRFDHAWKVRPEVNRLTPSAPSTYLRRIYFDTCVYRTDHIETLVRTVGADRVMLGSDYPFDMGDTDPLGLLNACQGLSDDEKATISSKVAIDFFGLET ... No
2) 69 (protein, listed as Microbacterium testaceum) MATSTEGQDVTDVHAHLLMPGLHAEVERRVPDEVQAAADLELRRNGLASLQASGRMIGERFPRLTDVRARLAAMDEQGVDRQWVSPSPNHFYPWANEGLATWASGEANRLIAEHVALAPDRLVGLGVVPLQHPHLVVDALDDAVLGRGLAGVEISSFAGDVELSDERLESFWARAAELRAVVFLHPFGCSLDERLDRFYLSNTVGQPTENAVALSHLIFSGVLDRHPGLRLIAAHGGGYLPTAIGRSDRAWRVRPEARGCAHAPSTYLSKLWFDTVVHDERALRWLVEAAGADRVLLGSDFPFDMGLDDPVAFVRGAGLQDAEVSGILGGNAAELLRTRVHA ... No
